# measurement.notes: Toxicity liver stage against HepG2, at 10uM
# Assay type: cell-based
# Parameters: test concentration 10 uM, cell line HepG2-A16-CD81EGFP
# experimental.context: human, HepG2-A16-CD81EGFP cells; read-out: INHIBITION
value.kind: cytotoxicity at 10 µM (%)
Reply numerically in %, unit not repeated.

// solved cases for cytotoxicity at 10 µM follow
>  <compound>
CCc1n[nH]c(C2CN(C(=O)Cc3ccc(C)nc3)CCO2)n1 (configuration not stated)

>  <endpoint.unit>
%

>  <cytotoxicity at 10 µM>
6.97

$$$$
>  <compound>
COc1ccccc1N1CCCC(Nc2ncccn2)C1=O (configuration not stated)

>  <endpoint.unit>
%

>  <cytotoxicity at 10 µM>
4.96

$$$$
>  <compound>
Cc1nn(C)cc1Cn1cc(Cl)c(N)n1

>  <endpoint.unit>
%

>  <cytotoxicity at 10 µM>
-5.61

$$$$

compound CCOc1ccc(Oc2cc(N)ccn2)cc1 , cytotoxicity at 10 µM observed: 2.9

The compound identified as Cc1nc(COC[C@@H]2CCC[C@@]23CN(C)CCO3)cs1 registered its cytotoxicity at 10 µM at -88.9

# cytotoxicity at 10 µM of Cc1ncsc1CN(C)Cc1cc2c(cc1OC(F)F)OCO2 = 6.22

GET /value?item= c1cncc(-c2nnc([C@H]3CCN(CC4CC4)C3)o2)c1 &field=cytotoxicity at 10 µM returns 9.06

Notebook: CN(C(=O)Cc1coc(-c2cccs2)n1)C1(C#N)CCC1 , cytotoxicity at 10 µM read as 6.52

====

# measurement.notes: Toxicity liver stage against HepG2, at 10uM
# Assay type: cell-based
# Design: test concentration 10 uM, cell line HepG2-A16-CD81EGFP
# experimental.context: human, HepG2-A16-CD81EGFP cells; read-out: INHIBITION
# cytotoxicity at 10 µM values compiled below
Be sure to follow the number with its unit.

Consider the following illustrative entries.
>  <compound>
Cc1nn(C)c2ncc(S(=O)(=O)N3CCCN4CCCC4C3)cc12 (stereo unspecified)

>  <value.kind>
cytotoxicity at 10 µM

>  <measurement>
-0.334%

$$$$
>  <compound>
Cc1cc(N2Cc3cnc(CC(C)C)nc3C2)nc(N)n1

>  <value.kind>
cytotoxicity at 10 µM

>  <measurement>
-5.64%

$$$$
>  <compound>
Cc1nn(C)cc1-c1cncn1CCc1ccc2c(c1)OCCO2

>  <value.kind>
cytotoxicity at 10 µM

>  <measurement>
11.5%

$$$$

The compound identified as COCCc1noc(CN2CCC3(CCCO3)CCC2=O)n1 (stereo unspecified) registered its cytotoxicity at 10 µM at 5.35%

Consider CC(NC(=O)N(C)CCOc1ccccc1F)c1nncn1C (stereo unspecified) . Its measured cytotoxicity at 10 µM is -9.92%

Sure, the documented cytotoxicity at 10 µM for COC[C@]1(O)CCN(Cc2c[nH]c(CC3CCCC3)n2)CC1(C)C is 17.7%

====

The reader will find reported cytotoxicity at 10 µM values listed item by item below.
# measurement.notes: Toxicity liver stage against HepG2, at 10uM
# Type: cell-based
# Design: test concentration 10 uM, cell line HepG2-A16-CD81EGFP
# experimental.context: human, HepG2-A16-CD81EGFP cells; read-out: INHIBITION
Reply with just the number (in %).

>  <molecule>
Cc1nc(C2CCN(S(C)(=O)=O)CC2)nc(N2CCCC2)c1C

>  <cytotoxicity at 10 µM, %>
4.48

$$$$
>  <molecule>
COCC(=O)NCCc1ccc(Cl)s1

>  <cytotoxicity at 10 µM, %>
13.4

$$$$
>  <molecule>
COC1CCN(C(=O)Cn2ncc(N3CCCCC3)cc2=O)C1 (stereo unspecified)

>  <cytotoxicity at 10 µM, %>
-2.69

$$$$

Item: COCc1cnc2n1CCN(S(=O)(=O)c1c(C)nn(C)c1C)C2C (stereo unspecified) | cytotoxicity at 10 µM: 15.4

For record COCCOCc1cccc(NC(=O)N2CCCC2c2ccncc2)c1 (stereo unspecified) the listed cytotoxicity at 10 µM is 6.79

Given item COc1cc(CN2CCCC2)ccc1OC12CCCN(CC1)C2 (stereo unspecified) , the value recorded as its cytotoxicity at 10 µM is -2.87
